Test system: thyroid hormone receptor (endogenous TRα and TRβ)
Set-up: species or system GH3-TRE-Luc (rat pituitary); GH3-TRE-Luc luciferase reporter, antagonist mode against 1 nM T3, loss of signal, qHTS
Conditions: read-out: Average AC50 (uM) GH3-TRE-Antag, antagonist mode, 1 nM T3, no GH3 cytotoxicity hit
Where a name gives a salt, the structure may show the parent alone.
Threshold 10 µM. AC50 below it: Satisfied. AC50 at it or above: Not satisfied.

Is AC50 strictly under 10 µM for the entry CC(C(=O)O)c1ccc(N2Cc3ccccc3C2=O)cc1 (stereo not drawn) [Indoprofen] ? Satisfied

Is AC50 strictly under 10 µM for the entry CCN(CC)CCOC(=O)[C@H](Cc1cccc2ccccc12)C[C@H]1CCCO1 [Nafronyl oxalate] ? Not satisfied

Is AC50 strictly under 10 µM for the entry NC(=O)C1(N2CCCCC2)CCN(CCCC(=O)c2ccc(F)cc2)CC1 [Pipamperone dihydrochloride] ? Not satisfied

Is AC50 strictly under 10 µM for the entry CC(C)c1cccc(C(C)C)c1N1C(=O)c2ccc(O)cc2C1=O [5HPP-33] ? Satisfied

Is AC50 strictly under 10 µM for the entry CCOC1O[C@H]([C@@H](COCc2ccccc2)OCc2ccccc2)[C@H](OCc2ccccc2)[C@H]1O (stereo partly drawn) [Tribenoside] ? Not satisfied

Is AC50 strictly under 10 µM for the entry `Nc1c2ccccc2nc2ccccc12` ? Satisfied

Is AC50 strictly under 10 µM for the entry Oc1c(Cl)ccc(Cl)c1Cl [2,3,6-Trichlorophenol] ? Not satisfied

Is AC50 strictly under 10 µM for the entry CC(Oc1ccc(Oc2ncc(C(F)(F)F)cc2Cl)cc1)C(=O)O (stereo not drawn) [Haloxyfop] ? Not satisfied

Is AC50 strictly under 10 µM for the entry O=C(c1ccc(O)cc1O)c1ccc(O)cc1O [2,2',4,4'-Tetrahydroxybenzophenone] ? Not satisfied

Is AC50 strictly under 10 µM for the entry CCC(Cc1c(I)cc(I)c(N)c1I)C(=O)O (stereo not drawn) [Iopanoic acid] ? Not satisfied

Is AC50 strictly under 10 µM for the entry CC(C)(O)C(=O)Nc1ccc([N+](=O)[O-])c(C(F)(F)F)c1 [Hydroxyflutamide] ? Not satisfied

Is AC50 strictly under 10 µM for the entry Cc1ccc2oc(CN(Cc3ccccc3)C(=O)Nc3c(F)cc(F)cc3F)c(-c3ccc(Cl)cc3)c2c1 [FR145237] ? Satisfied

Is AC50 strictly under 10 µM for the entry CC1(C)C(/C=C(\Cl)C(F)(F)F)C1C(=O)OC(C#N)c1cccc(Oc2ccccc2)c1 (stereo not drawn) [alpha-Cyhalothrin] ? Not satisfied

Is AC50 strictly under 10 µM for the entry Nc1nc(N)c2nc(CNc3ccc(C(=O)N[C@@H](CCC(=O)O)C(=O)O)cc3)cnc2n1 [4-Aminofolic acid] ? Not satisfied

Is AC50 strictly under 10 µM for the entry CC(C)NC(=O)N1CC(=O)N(c2cc(Cl)cc(Cl)c2)C1=O [Iprodione] ? Not satisfied

Is AC50 strictly under 10 µM for the entry Cc1occc1SSc1ccoc1C [Bis(2-methyl-3-furyl)disulfide] ? Not satisfied

Is AC50 strictly under 10 µM for the entry O=c1oc2c(O)c(O)cc3c(=O)oc4c(O)c(O)cc1c4c23 [Ellagic acid] ? Not satisfied

Is AC50 strictly under 10 µM for the entry Cc1ccc(C(=O)C(C)CN2CCCCC2)cc1 (stereo not drawn) [Tolperisone hydrochloride] ? Not satisfied

---

Test system: thyroid hormone receptor (endogenous TRα and TRβ)
Design: species or system GH3-TRE-Luc (rat pituitary); GH3-TRE-Luc luciferase reporter, antagonist mode against 1 nM T3, loss of signal, qHTS
Conditions: read-out: Average AC50 (uM) GH3-TRE-Antag, antagonist mode, 1 nM T3, no GH3 cytotoxicity hit
Where a name gives a salt, the structure may show the parent alone.
Classify by AC50. Ranges: group 1: < 30 µM; group 2: ≥ 30 µM and < 60 µM; group 3: ≥ 60 µM

Just checking, what class would you give `CCN(CC)CCO[C@H]1CC[C@@]2(C)C(=CC[C@@H]3[C@@H]2CC[C@]2(C)C(=O)CC[C@@H]32)C1` here? group 1

Just checking, what class would you give O=C(N[C@H]1N=C(c2ccccc2F)c2cccc3c2N(CC3)C1=O)c1cc2ccccc2[nH]1 [Pranazepide] here? group 1

Just checking, what class would you give `O=C1[C@H](CC[C@H](O)c2ccc(F)cc2)[C@@H](c2ccc(O)cc2)N1c1ccc(F)cc1` here? group 2

Just checking, what class would you give `Cc1cccc(Oc2ccccc2)c1` here? group 3

Just checking, what class would you give `OCCN(CCO)c1nc(N2CCCCC2)c2nc(N(CCO)CCO)nc(N3CCCCC3)c2n1` here? group 1

Just checking, what class would you give CCCCC(CC)COC(=O)/C=C/c1ccc(OC)cc1 (stereo not drawn) [2-Ethylhexyl trans-4-methoxycinnamate] here? group 3

Just checking, what class would you give Cc1c(COC(=O)[C@@H]2[C@H](/C=C(\Cl)C(F)(F)F)C2(C)C)cccc1-c1ccccc1 (racemic) here? group 1

Just checking, what class would you give CC(CN1CC(=O)NC(=O)C1)N1CC(=O)NC(=O)C1 (centres unmarked) here? group 2

Just checking, what class would you give `C[C@H]1O[C@@H](O[C@H]2[C@@H](O)C[C@H](O[C@H]3[C@@H](O)C[C@H](O[C@H]4CC[C@@]5(C)[C@H](CC[C@@H]6[C@@H]5CC[C@]5(C)[C@@H](C7=CC(=O)OC7)CC[C@]65O)C4)O[C@@H]3C)O[C@@H]2C)C[C@H](O)[C@@H]1O` here? group 2

Just checking, what class would you give `CC[C@H](NC(=O)c1cc(F)ccc1NS(=O)(=O)c1cccc2cccnc12)c1ccccc1` here? group 2

Just checking, what class would you give CCOC(CN1CCN(CC(C)C(=O)c2ccccc2)CC1)c1ccccc1 (centres unmarked) [Eprazinone dihydrochloride] here? group 2

Just checking, what class would you give Nc1ccc(C(=O)Oc2ccccc2)c(O)c1 [Phenyl 4-aminosalicylate] here? group 2

Just checking, what class would you give `CCC(C)(C)C(=O)OC1=C(c2ccc(Cl)cc2Cl)C(=O)OC12CCCCC2` here? group 2

Just checking, what class would you give `Cc1nc(-c2ccc(OCC(C)C)c(C#N)c2)sc1C(=O)O` here? group 1

Just checking, what class would you give `O=C(NOC[C@H](O)CO)c1ccc(F)c(F)c1Nc1ccc(I)cc1F` here? group 1

Just checking, what class would you give `Nc1ccc2c3c(cccc13)-c1ccccc1-2` here? group 2

Just checking, what class would you give `C=CC(=O)OCCOC(=O)CCC(=O)O` here? group 3

Just checking, what class would you give `CC1(C)[C@H](/C=C(\Cl)C(F)(F)F)[C@@H]1C(=O)O[C@@H](C#N)c1cccc(Oc2ccccc2)c1` here? group 2

Just checking, what class would you give c1cnc2cc3c(cc2n1)[C@@H]1CNC[C@H]3C1 [Varenicline dihydrochloride] here? group 3

Just checking, what class would you give `CC(C)N(C(=O)COc1nnc(C(F)(F)F)s1)c1ccc(F)cc1` here? group 2

Just checking, what class would you give CC(C)(C)C(O)C(Oc1ccc(Cl)cc1)n1cncn1 (centres unmarked) here? group 3

Just checking, what class would you give `CC1(C)[C@H](C(=O)OCc2coc(Cc3ccccc3)c2)[C@@H]1/C=C1\CCSC1=O` here? group 2

Just checking, what class would you give `C=C(C)C(=O)Nc1ccc(Cl)c(Cl)c1` here? group 2

Just checking, what class would you give `CN(C)C(=O)Nc1ccc(Oc2ccc(Cl)cc2)cc1` here? group 3

Just checking, what class would you give CCN(CCCCOC(=O)c1ccc(OC)c(OC)c1)C(C)Cc1ccc(OC)cc1 (centres unmarked) [Mebeverine hydrochloride] here? group 1

Just checking, what class would you give `NC(=S)NC(N)=S` here? group 2

Just checking, what class would you give `N#Cc1cc(Br)c(O)c(Br)c1` here? group 3

Just checking, what class would you give `CCC(C)(CC)c1cc(NC(=O)c2c(OC)cccc2OC)on1` here? group 3

Just checking, what class would you give `NCCN1CCNCC1` here? group 3

Just checking, what class would you give CC1(CO)CN(c2ccccc2)NC1=O (centres unmarked) here? group 3

Just checking, what class would you give `CCCCOCCOC(=O)COc1cc(Cl)c(Cl)cc1Cl` here? group 3

---

Tested on: thyroid hormone receptor (endogenous TRα and TRβ)
Design: species or system GH3-TRE-Luc (rat pituitary); GH3-TRE-Luc luciferase reporter, antagonist mode against 1 nM T3, loss of signal, qHTS
Conditions: read-out: Average AC50 (uM) GH3-TRE-Antag, antagonist mode, 1 nM T3, no GH3 cytotoxicity hit
Counter-ions that a name gives are not always drawn.
For each entry below, report its AC50 value.
# unit: µM | format: bare number

Value of AC50 reported for the compound `CC(C)(O)c1cnn2c(-c3ccc(F)c(-c4c(F)cccc4C#N)c3)cnc2n1` is 42.1

Value of AC50 reported for the compound `CCOc1ccc(O)cc1` is 82.5

Value of AC50 reported for the compound NC1=NCC2c3ccccc3Cc3ccccc3N12 (stereo not drawn) [Epinastine hydrochloride] is 27.1

Value of AC50 reported for the compound O=C(O)[C@@H]1[C@H](C(=O)O)[C@H]2CC[C@@H]1O2 [Endothal] is 77.2

Value of AC50 reported for the compound CN1CCCN=C1COC(=O)C(O)(c1ccccc1)C1CCCCC1 (stereo not drawn) [Oxyphencyclimine hydrochloride] is 43.3

Value of AC50 reported for the compound CCC(C)c1cc(C(C)(C)C)c(O)c(C(C)(C)C)c1 (stereo not drawn) is 23.6

Value of AC50 reported for the compound `O=C(c1ccccc1)c1cc(Cl)ccc1O` is 84.3

Value of AC50 reported for the compound `CCC(=O)/C=C/c1ccc(OC)cc1` is 79.8

Reference source for all entries: paper PMC6792352
